Values compiled from patent US20040147531A1.

measured-target: Aβ (Homo sapiens, UniProt P05067)
Construct: Aβ peptide: Aβ (1-40) 95% purity (American Peptide Company, Inc, Sunnyvale, Calif. USA)
Sequence (P05067 672-711 limits assumed): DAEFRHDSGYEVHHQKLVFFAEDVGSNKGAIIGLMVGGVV
assay-name: electron microscopy (EM) assay, inhibition of fibrillogenesis
Assay type: biochemical
Design: key: “+” = active; “−” = inactive; “pr” = promoting
condition-parameters: soluble Aβ

molecule	measured-target	EM
N=C(N)c1ccc2nc(-c3ccc(C4CC4c4ccc(-c5nc6ccc(C(=N)N)cc6[nH]5)cc4)cc3)[nH]c2c1 (centres unmarked)	Aβ (Homo sapiens, UniProt P05067)	+
c1cc(C2=NCCN2)ccc1OCCOCCOc1ccc(C2=NCCN2)cc1	Aβ (Homo sapiens, UniProt P05067)	−
Cl.N=C(N)c1ccccc1	Aβ (Homo sapiens, UniProt P05067)	−
COc1ccc(-c2ccc(-c3ccc(NC(=N)N)cc3)o2)cc1	Aβ (Homo sapiens, UniProt P05067)	+
CC(C)NC(=N)c1cccc(COc2cccc3c(OCc4cccc(C(=N)NC(C)C)c4)cccc23)c1	Aβ (Homo sapiens, UniProt P05067)	−
CC(C)c1ccc(OCc2ccc(C(=N)N)cc2)cc1	Aβ (Homo sapiens, UniProt P05067)	+
CC(C)NC(=N)c1ccc(OCc2ccc(COc3ccc(C(=N)NC(C)C)cc3)c3ccccc23)cc1	Aβ (Homo sapiens, UniProt P05067)	+
CCc1ccc(CCc2ccc(-c3nc4ccc(C(=N)N)cc4[nH]3)cc2)cc1	Aβ (Homo sapiens, UniProt P05067)	+
COc1ccc(-c2ccc(-c3ccc(C(=N)N)cc3)o2)cc1	Aβ (Homo sapiens, UniProt P05067)	+
N=C(N)c1ccc(OCCC(O)COc2ccc(C(=N)N)cc2)cc1 (centres unmarked)	Aβ (Homo sapiens, UniProt P05067)	−
CC(C)NC(=N)c1ccc(COc2cccc3c(OCc4ccc(C(=N)NC(C)C)cc4)cccc23)cc1	Aβ (Homo sapiens, UniProt P05067)	+
N=C(Nc1ccc(OCCCCCOc2ccc(NC(=N)c3ccccc3)cc2)cc1)c1ccccc1	Aβ (Homo sapiens, UniProt P05067)	−
Cn1c(-c2nc3ccc(C(=N)N)cc3[nH]2)ccc1-c1nc2ccc(C(=N)N)cc2[nH]1	Aβ (Homo sapiens, UniProt P05067)	+
N=C(N)c1ccc(-c2ccc(-c3nc4ccccc4[nH]3)o2)cc1	Aβ (Homo sapiens, UniProt P05067)	+
N=C(N)c1ccc2nc(-c3ccc(Cc4ccc(-c5nc6ccc(C(=N)N)cc6[nH]5)cc4)cc3)[nH]c2c1	Aβ (Homo sapiens, UniProt P05067)	+
N=C(N)c1ccc(OCOc2ccc(C(=N)N)cc2)cc1	Aβ (Homo sapiens, UniProt P05067)	−
N=C(N)c1ccc(OCCCCCCCCCCCCOc2ccc(C(=N)N)cc2Br)c(Br)c1	Aβ (Homo sapiens, UniProt P05067)	+
N=C(N)c1ccc(-c2coc(-c3ccc(C(=N)N)cc3)c2)cc1	Aβ (Homo sapiens, UniProt P05067)	+
c1cc(COc2ccc(C3=NCCN3)cc2)cc(COc2ccc(C3=NCCN3)cc2)c1	Aβ (Homo sapiens, UniProt P05067)	+
COc1cc(NC(=N)N)ccc1-c1ccc(-c2ccc(NC(=N)N)cc2OC)o1	Aβ (Homo sapiens, UniProt P05067)	+
